target: Metabotropic glutamate receptor 5 (Rattus norvegicus) (UniProt P31424); experiment: Negative allosteric modulation of rat mGlu5 receptor expressed in HEK293 cells assessed as inhibition of glutamate induced-calcium mobilization at 30 uM preincubated for 2.3 mins followed by glutamate addition measured after 1.7 mins by Fluo-4 AM dye based fluorescence assay relative to glutamate; type: functional, cell-based
Sequence (P31424 21-1203 limits assumed): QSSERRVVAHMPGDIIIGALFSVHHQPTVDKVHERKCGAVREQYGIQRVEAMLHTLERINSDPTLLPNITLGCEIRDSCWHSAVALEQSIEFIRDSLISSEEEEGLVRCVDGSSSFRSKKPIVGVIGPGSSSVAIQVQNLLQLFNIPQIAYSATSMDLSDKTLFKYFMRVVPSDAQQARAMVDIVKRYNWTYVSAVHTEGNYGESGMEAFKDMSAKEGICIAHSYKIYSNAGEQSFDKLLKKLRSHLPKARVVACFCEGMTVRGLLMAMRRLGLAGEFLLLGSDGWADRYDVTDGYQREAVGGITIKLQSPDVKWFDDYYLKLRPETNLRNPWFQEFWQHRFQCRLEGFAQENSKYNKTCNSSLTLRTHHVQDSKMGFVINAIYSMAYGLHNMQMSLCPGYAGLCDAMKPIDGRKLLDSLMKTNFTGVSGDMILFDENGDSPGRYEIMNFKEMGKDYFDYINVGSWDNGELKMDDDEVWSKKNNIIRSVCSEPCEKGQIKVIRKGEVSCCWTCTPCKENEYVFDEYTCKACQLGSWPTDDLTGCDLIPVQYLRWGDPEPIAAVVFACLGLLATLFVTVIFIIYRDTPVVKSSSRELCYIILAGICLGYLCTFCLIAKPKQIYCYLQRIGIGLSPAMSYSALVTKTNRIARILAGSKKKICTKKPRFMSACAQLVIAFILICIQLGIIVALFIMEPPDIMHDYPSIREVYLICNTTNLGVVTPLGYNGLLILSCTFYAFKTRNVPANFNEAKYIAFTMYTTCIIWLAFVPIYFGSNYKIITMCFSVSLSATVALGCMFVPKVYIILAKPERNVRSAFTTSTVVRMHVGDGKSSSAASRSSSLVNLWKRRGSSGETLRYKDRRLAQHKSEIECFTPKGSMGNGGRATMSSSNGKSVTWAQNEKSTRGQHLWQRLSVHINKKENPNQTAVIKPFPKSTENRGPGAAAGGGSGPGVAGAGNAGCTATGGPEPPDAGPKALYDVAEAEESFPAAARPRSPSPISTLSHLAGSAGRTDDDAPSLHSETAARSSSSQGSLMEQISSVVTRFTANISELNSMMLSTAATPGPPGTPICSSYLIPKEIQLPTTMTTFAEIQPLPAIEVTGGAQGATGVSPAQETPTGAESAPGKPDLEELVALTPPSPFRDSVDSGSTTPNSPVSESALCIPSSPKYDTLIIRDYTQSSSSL
measurement_name: %max (%)
Numbers only, in %.

- molecular_string: "O=C(Nc1ccc(F)cn1)c1cc(Oc2cncc(Cl)c2)cn2ncnc12"
  %max / %: 1.1
- molecular_string: "O=C(Nc1ccc(F)cn1)c1cc(Oc2cnc(F)c(F)c2)cn2ncnc12"
  %max / %: 1.6
- molecular_string: "O=C(Nc1ccc(F)cn1)c1cc(Oc2cncnc2)cn2cnnc12"
  %max / %: 1.6
- molecular_string: "O=C(Nc1ccc(F)cn1)c1cc(Oc2cncc(OC(F)F)c2)cn2ncnc12"
  %max / %: 1.7

The record that follows has no %max shown yet.
Prompt line: Give the measured %max of "Cc1nnc2c(C(=O)Nc3ccc(F)cn3)cc(Oc3cncc(F)c3)cn12" .
Response line: 2.7
